The origin of these recorded values is the Immune Epitope Database (IEDB).

SYSTEM UNDER TEST: HLA-A*02:19
ASSAY COMMENT: IEDB peptide-MHC binding, purified MHC/direct/fluorescence; filed as Kd, often an IC50 or EC50 that approximates it; bounds were set here for any values at or beyond the usual limits of such assays
RUN PARAMETERS: source organism: Orthohantavirus tulaense
PROPERTY LABEL: Kd

Returns the measured Kd for the input sequence. Input: AESICSYWL
≥ 20 µM

====

SYSTEM UNDER TEST: HLA-B*40:02
ASSAY COMMENT: IEDB peptide-MHC binding, purified MHC/competitive/radioactivity; filed as Kd, often an IC50 or EC50 that approximates it; bounds were set here for any values at or beyond the usual limits of such assays
RUN PARAMETERS: source organism: Hepatitis C virus (isolate 1)
pKd: −log10 of the molar value.
PROPERTY LABEL: pKd

Find the recorded pKd belonging to KLVALGINAV and report it.
≤ 4.15

====

Reported pKd by item:
SYSTEM UNDER TEST: HLA-A*02:01
ASSAY COMMENT: IEDB peptide-MHC binding, purified MHC/direct/fluorescence; filed as Kd, often an IC50 or EC50 that approximates it; bounds were set here for any values at or beyond the usual limits of such assays
RUN PARAMETERS: source organism: Homo sapiens
Lab note — pKd values are minus log10 of concentrations in M.

[[record]]
sequence_data = "YITDYSNDI"
test_result = 8.12


Query sequence follows.
I would be grateful if you could share the reported pKd for MQDVFTFYV .
9.10

====

SYSTEM UNDER TEST: HLA-A*02:01
ASSAY COMMENT: IEDB peptide-MHC binding, purified MHC/competitive/radioactivity; filed as Kd, often an IC50 or EC50 that approximates it; bounds were set here for any values at or beyond the usual limits of such assays
RUN PARAMETERS: source organism: Dengue virus 4 Dominica/814669/1981
PROPERTY LABEL: Kd (nM)
Express the result in nM but write the number alone.

If you can, please state the reported Kd value of SMGLITIAV .
9.99

====

SYSTEM UNDER TEST: HLA-B*27:05
ASSAY COMMENT: IEDB peptide-MHC binding, purified MHC/direct/fluorescence; filed as Kd, often an IC50 or EC50 that approximates it; bounds were set here for any values at or beyond the usual limits of such assays
RUN PARAMETERS: source organism: Influenza A virus (A/quail/Hong Kong/FY298/00(H9N2))
pKd: −log10 of the molar value.
PROPERTY LABEL: pKd

Quick check: pKd of TKDAERGKL ?
≤ 4.70

====

SYSTEM UNDER TEST: HLA-B*27:05
ASSAY COMMENT: IEDB peptide-MHC binding, purified MHC/direct/fluorescence; filed as Kd, often an IC50 or EC50 that approximates it; bounds were set here for any values at or beyond the usual limits of such assays
RUN PARAMETERS: source organism: Marburg virus - Musoke, Kenya, 1980
PROPERTY LABEL: Kd

Suppose we examine the sequence THYSGNIVH ; what Kd value has been reported?
≥ 20 µM

====

SYSTEM UNDER TEST: HLA-B*46:01
ASSAY COMMENT: IEDB peptide-MHC binding, purified MHC/competitive/fluorescence; filed as Kd, often an IC50 or EC50 that approximates it; bounds were set here for any values at or beyond the usual limits of such assays
RUN PARAMETERS: source organism: Mus musculus
PROPERTY LABEL: pKd
Hey, just a heads up that pKd is the negative log base 10 of the concentration in molar.

Consider the sequence shown here: YTFCGTIEY What is its recorded pKd?
7.94

====

SYSTEM UNDER TEST: HLA-A*24:02
ASSAY COMMENT: IEDB peptide-MHC binding, purified MHC/direct/fluorescence; filed as Kd, often an IC50 or EC50 that approximates it; bounds were set here for any values at or beyond the usual limits of such assays
RUN PARAMETERS: source organism: Marburg virus - Musoke, Kenya, 1980
PROPERTY LABEL: Kd (nM)
Your answer is read as nM, so omit the unit and give the number.

What Kd appears in the records for this sequence with HLA-A*24:02? GFPSLESSF
260

====

SYSTEM UNDER TEST: HLA-B*15:17
ASSAY COMMENT: IEDB peptide-MHC binding, purified MHC/competitive/fluorescence; filed as Kd, often an IC50 or EC50 that approximates it; bounds were set here for any values at or beyond the usual limits of such assays
RUN PARAMETERS: source organism: Human immunodeficiency virus 1
PROPERTY LABEL: Kd (µM)
Give the number; µM is assumed, so skip it.

Recorded Kd of VLYCVHQEI , please.
0.345

====

SYSTEM UNDER TEST: HLA-B*15:01
ASSAY COMMENT: IEDB peptide-MHC binding, purified MHC/competitive/fluorescence; bounds were set here for any values at or beyond the usual limits of such assays
RUN PARAMETERS: source organism: Sudan ebolavirus
PROPERTY LABEL: IC50

Can you share its IC50? I mean this sequence: YYATSYLEY
≥ 244 µM

====

SYSTEM UNDER TEST: HLA-B*46:01
ASSAY COMMENT: IEDB peptide-MHC binding, purified MHC/direct/fluorescence; filed as Kd, often an IC50 or EC50 that approximates it; bounds were set here for any values at or beyond the usual limits of such assays
RUN PARAMETERS: source organism: West Nile virus
pKd: −log10 of the molar value.
pKd values by entry

[[record]]
sequence_data = "VIQLNRKSY"
property_label = "pKd"
test_result = "≤ 4.70"


For the next question, use this sequence.
I am curious: what pKd value has been reported for VHREWFMDL ?
≤ 4.70

====

SYSTEM UNDER TEST: HLA-A*02:03
ASSAY COMMENT: IEDB peptide-MHC binding, purified MHC/competitive/fluorescence; filed as Kd, often an IC50 or EC50 that approximates it; bounds were set here for any values at or beyond the usual limits of such assays
RUN PARAMETERS: source organism: Mycobacterium tuberculosis variant bovis BCG str. Pasteur 1173P2
PROPERTY LABEL: Kd

May I ask what Kd has been recorded for YLAEGHACL ?
≤ 1 nM

====

SYSTEM UNDER TEST: HLA-B*40:01
ASSAY COMMENT: IEDB peptide-MHC binding, purified MHC/direct/fluorescence; filed as Kd, often an IC50 or EC50 that approximates it; bounds were set here for any values at or beyond the usual limits of such assays
RUN PARAMETERS: source organism: Cryptosporidium hominis
PROPERTY LABEL: Kd

Provide value of Kd for this record tested with HLA-B*40:01: FMKSRVYSI
≥ 20 µM

====

SYSTEM UNDER TEST: HLA-A*03:01
ASSAY COMMENT: IEDB peptide-MHC binding, purified MHC/competitive/fluorescence; filed as Kd, often an IC50 or EC50 that approximates it; bounds were set here for any values at or beyond the usual limits of such assays
RUN PARAMETERS: source organism: Bacillus cereus G9241
pKd: −log10 of the molar value.
PROPERTY LABEL: pKd

What is its pKd for HLA-A*03:01? Entry: ITNPFFYQM
≤ 4.70

====

SYSTEM UNDER TEST: HLA-A*02:12
ASSAY COMMENT: IEDB peptide-MHC binding, purified MHC/competitive/fluorescence; filed as Kd, often an IC50 or EC50 that approximates it; bounds were set here for any values at or beyond the usual limits of such assays
RUN PARAMETERS: source organism: Xanthobacter autotrophicus Py2
PROPERTY LABEL: pKd
Here pKd is given on a logarithmic scale as minus log10 of the concentration in mol/L.

Lab note: need pKd with HLA-A*02:12 for entry GQMYNMNTL , please look it up.
8.85

====

SYSTEM UNDER TEST: HLA-B*39:01
ASSAY COMMENT: IEDB peptide-MHC binding, purified MHC/competitive/fluorescence; filed as Kd, often an IC50 or EC50 that approximates it; bounds were set here for any values at or beyond the usual limits of such assays
RUN PARAMETERS: source organism: Cryptococcus neoformans var. neoformans B-3501A
pKd: −log10 of the molar value.
PROPERTY LABEL: pKd

Quick one: pKd of AIDDFCLFA ?
≤ 4.70

====

SYSTEM UNDER TEST: HLA-A*02:01
ASSAY COMMENT: IEDB peptide-MHC binding, purified MHC/direct/fluorescence; filed as Kd, often an IC50 or EC50 that approximates it; bounds were set here for any values at or beyond the usual limits of such assays
RUN PARAMETERS: source organism: Influenza A virus (A/Viet Nam/HN/2004(H5N1))
PROPERTY LABEL: Kd

Could you share which Kd value was measured for RNEQGQTLW ?
≥ 20 µM

====

SYSTEM UNDER TEST: HLA-B*40:01
ASSAY COMMENT: IEDB peptide-MHC binding, purified MHC/direct/fluorescence; filed as Kd, often an IC50 or EC50 that approximates it; bounds were set here for any values at or beyond the usual limits of such assays
RUN PARAMETERS: source organism: Orthohantavirus tulaense
PROPERTY LABEL: Kd

// query Kd value for entry ATATWFQYY
≥ 20 µM
